Listed compounds paired with reported inhibition at 1 µM
TARGET: UniProt:Q16539
PROTOCOL: Enzymatic assay: inhibition of p38 MAP-kinase (phosphorylation of GST-tagged ATF2, chemoluminescence bead readout)
Type: biochemical
TEST_PARAMETERS: inhibitor 1 μM; activated p38 MAP-kinase 1 nM; 4 h preincubation; ATP 100 μM; ATF2 10 nM; read-out: % inhibitory effect at 1 μM
Numbers only here, please. The scale is %.

Answered examples (5):
COc1c(NC(=O)c2ccc(Cl)c(Oc3cc(CN4CCNCC4)ncn3)c2)cc(C(C)(C)C)cc1NS(C)(=O)=O ... 97.9
COc1c(NC(=O)c2ccc(C)c(Oc3ccnc(CC4CCNCC4)c3)c2)cc(C(C)(C)C)cc1S(C)(=O)=O ... 99.5
COc1c(NC(=O)c2ccc(C)c(Oc3ccnc(CN4CCOCC4)c3)c2)cc(C(C)(C)C)cc1NS(C)(=O)=O ... 98.4
COc1c(NC(=O)c2ccc(Cl)c(Oc3cc(CC4CCN(C)CC4)ncn3)c2)cc(C(C)(C)C)cc1NS(C)(=O)=O ... 98.7
COc1c(NC(=O)c2cc(Cl)c(C)c(Oc3ccnc(CN4CCN(C)CC4)n3)c2)cc(C(C)(C)C)cc1NS(C)(=O)=O ... 98.5

Which inhibition at 1 µM value belongs to COc1c(NC(=O)c2cc(F)c(C)c(Oc3ccnc(N4CCNCC4)n3)c2)cc(C(C)(C)C)cc1NS(C)(=O)=O ? 98.2

Which inhibition at 1 µM value belongs to COc1c(NC(=O)c2ccc(C)c(Oc3ccnc(N(C)C4CCNC4)n3)c2)cc(C(C)(C)C)cc1NS(C)(=O)=O (stereo not shown) ? 97.9

###

Listed compounds paired with reported inhibition at 1 µM
TARGET: p38 MAP-kinase (Homo sapiens)
Sequence (Q16539 whole entry): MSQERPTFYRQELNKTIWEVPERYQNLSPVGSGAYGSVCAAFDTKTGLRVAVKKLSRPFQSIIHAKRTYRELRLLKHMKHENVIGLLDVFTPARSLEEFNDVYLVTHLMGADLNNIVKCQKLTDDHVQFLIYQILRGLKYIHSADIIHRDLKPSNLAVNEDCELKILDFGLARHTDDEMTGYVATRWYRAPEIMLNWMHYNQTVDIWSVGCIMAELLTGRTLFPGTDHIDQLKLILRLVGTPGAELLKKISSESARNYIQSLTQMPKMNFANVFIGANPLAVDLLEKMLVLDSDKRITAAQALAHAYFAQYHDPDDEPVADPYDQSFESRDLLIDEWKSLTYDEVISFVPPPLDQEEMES
PROTOCOL: Enzymatic assay: inhibition of p38 MAP-kinase (phosphorylation of GST-tagged ATF2, chemoluminescence bead readout)
Format: biochemical
TEST_PARAMETERS: inhibitor 1 μM; activated p38 MAP-kinase 1 nM; 4 h preincubation; ATP 100 μM; ATF2 10 nM; read-out: % inhibitory effect at 1 μM
Numbers only here, please. The scale is %.

Answered examples (6):
COc1c(NC(=O)c2ccc(Cl)c(Oc3ccnc(NC4CCNCC4)n3)c2)cc(C(C)(C)C)cc1NS(C)(=O)=O ... 99
COc1c(NC(=O)c2cc(C)cc(Oc3ccnc(CN4CCNCC4)n3)c2)cc(C(C)(C)C)cc1NS(C)(=O)=O ... 85.7
COc1c(NC(=O)c2ccc(C)c(Oc3cc(C(=O)N4CCN(C)CC4)ncn3)c2)cc(C(C)(C)C)cc1NS(C)(=O)=O ... 96.3
COc1c(NC(=O)c2ccc(C)c(Oc3ccnc(N4CC[C@H](N(C)C)C4)n3)c2)cc(C(C)(C)C)cc1NS(C)(=O)=O ... 98.6
COc1c(NC(=O)c2ccc(C)c(Oc3ccnc(N4CCC(N(C)C)CC4)n3)c2)cc(C(C)(C)C)cc1NS(C)(=O)=O ... 98.6
COc1c(NC(=O)c2ccc(Cl)c(Oc3ccnc(NC4CCN(C)CC4)n3)c2)cc(C(C)(C)C)cc1NS(C)(=O)=O ... 99.6

Now consider a different compound.
Which inhibition at 1 µM value belongs to COc1c(CO)cc(C(C)(C)C)cc1NC(=O)c1ccc(C)c(Oc2ccnc(CN3CCN(C)CC3)n2)c1 ? 98.2
